TEST: yeast display, Sf9 membrane polyspecificity reagent, FACS + sequencing; frameworks hold sequencing errors
METRIC NAME: polyreactivity (PSR sort gate)

chain=QVQHVESGGGLVQAGGSLRLSCAASGRILKPNAMGWYRPAPGKERELVAAIRWRGDITYYADSVKGRFTISRDNAKNTVYLQMNSLKPEDTAVYYCNARTYYRRQKYDYWGQGTKVTVSS metric_name="polyreactivity (PSR sort gate)" assay_result="high polyreactivity"
chain=QVQLVESGGGLVQAGGSLRLSCAASGSTLVIYAMGWYRQAPVKEREFVAAIRCSPGRTYYADSVKGRFTISRDNAKNSVYLQMNSLKPEDTAVYYCAVEYQSWKGWWFDYWGQGTQLTVSS metric_name="polyreactivity (PSR sort gate)" assay_result="high polyreactivity"

###

TEST: yeast display, Sf9 membrane polyspecificity reagent, FACS + sequencing; frameworks hold sequencing errors
METRIC NAME: polyreactivity (PSR sort gate)

Completed entries (count: 4):
chain=QVQLKESGAGLVQAGGSLRLCCAASGNIIPDAGMGWYRQAPGKEREFVAGISRGANTYYADSVKGRFTISRDNAKNSVYLQMNSLKPEDTAVYYCNAGSSYLCRFPLDYWGQGTQVTVSS assay_result="high polyreactivity"
chain=QVQLQESGGGLVQAGGSQRLSCAASGYIFYFQYMGWYRQAPGKEREFVAAISDGANTNYADSVKGRFTISRDNAKNTEYLQMNSLKPEDTAVYYCAVYADEKYYYIYWGQGTQVTVSS assay_result="low polyreactivity"
chain=QVQLVESGGGLVQAGGSLRLSCAASGRIFWGSTMVWYRQAPGKEMELVAAITYRGATTYYADSVKGRFTISRDNAKNTVYLQMNSLKPEDTAVYYCAAEYYYTYGYWGQGTQVTVSS assay_result="high polyreactivity"
chain=QVQLVESGGGLVQAGGSLRLSCAASGLTFSVYAMGWYREAPGKERELVAGITSSVGDTYYADSVKGRFTISRDNAKNTVYLQMNSLKPEDTAVYYCNAKYRTFVSKHDYWGQGTQLTVSS assay_result="low polyreactivity"

Okay, next one:
Prompt: Consider the sequence `QVQLQESGGGPVLAGGRLRLSCAASGTIFVRLDMGWYRQAPGKEREFVATIGSGSSTYYADSVKGSFTISRDNVKNTVFLQMNTLIPEDTAVYYCAVSAAEQSRHYYWDQGTQVTVSS` and give its measured polyreactivity (PSR sort gate).
Response: low polyreactivity

###

TEST: yeast display, Sf9 membrane polyspecificity reagent, FACS + sequencing; frameworks hold sequencing errors
METRIC NAME: polyreactivity (PSR sort gate)

Completed entries (count: 10):
chain=QVQLVESGGGLVQAAGSLRLSCAASGSTFADNAMGWYRQAPGKEREMVAANSRRGGSTYYADSVKGRFTISLDNAKNTVYLQMNSLKPEDTAVYYCAKPSGLVVNQYRAGMEYWGQGTQVTVSS metric_name="polyreactivity (PSR sort gate)" assay_result="high polyreactivity"
chain=QVQLVESGGGLVQAGGSLRLSCAASGFTLYRYAMGWYRQAPGKERELVAAISNSGGSTYYADSVKARFTISRDNAKNTVYLQMNSLKPEDTAVYYCAADPGYNVYGYYYWGQGTQVTVSS metric_name="polyreactivity (PSR sort gate)" assay_result="high polyreactivity"
chain=QVQLVESGGGLVQAGGSLRLSCAASGSIFGQNAMGWYRQAPGKERELVAAITSGAGITYYADSVKGRFTISRDNAKNTVYLQMNSLKPEDTAVYYCNAVPSWTPSPLFDYWGLGTQVTVSS metric_name="polyreactivity (PSR sort gate)" assay_result="low polyreactivity"
chain=QVQLGESGGGLVQAGGSLRLSCAASGFSFWYYPMGWYRQAPGKERELVASIRYSGDSTSYADSVKGRFTISRDNAKNNVYFQMNSLKAEDTEVYYSAAVRYWYASYYTYEYWGQGTQVSVSS metric_name="polyreactivity (PSR sort gate)" assay_result="high polyreactivity"
chain=QVQLVESGGGLVQAGGSLRLSCAASGSTFVSYAMGGSRQAPGKERELVAAISRSGGSTYYADSVKGRFTISRDTAKNTVYLQMNSLKPEDTAGYYCAADGRGPSKRNRDYWGQGTQVTVSS metric_name="polyreactivity (PSR sort gate)" assay_result="high polyreactivity"
chain=QVQLVESGGGLVQAGGSLRLSCAASASIFYIYAKGSYRQAPGKARELVAVIRNGGRTNYADSVKGRFTISRDNAKNTVYFQMNSLKPEDTAVYYCAARPRHVTRFDYWGQGTQVTVSS metric_name="polyreactivity (PSR sort gate)" assay_result="high polyreactivity"
chain=QVQLVESGGGLVQAGGSLRLRCAASGNIFGIYTMAWYRQAPGKESDFVAVISLSGTSTYYADSVKGRFTISRDNAKNTVYLQMNSLKPEDTAVYYCNARTPHNKGRRRAYDYWGQGTEVTVSS metric_name="polyreactivity (PSR sort gate)" assay_result="high polyreactivity"
chain=QVQLVESGGGLVQAGGSLRLSCAASGNIFIRYAMGWYRQAPGKERELVAAISQSGGGTSYADSVKGRFRISRDNAKNTVYLQMNSLKPEDTAVSYCNVEKVGHFNSYGYDYWGQGTQVTVSS metric_name="polyreactivity (PSR sort gate)" assay_result="low polyreactivity"
chain=QVQLVESGGGLVQAGGSLRLSCAASGRSYRRNTMGWYRQAPGKERELVAAISNRGTSTYYADSVKGRFTISRDNEKNTVYLLMNSLKPEDTAVYYCAARGVRSYFFPYNYWGQGTQVTVSS metric_name="polyreactivity (PSR sort gate)" assay_result="high polyreactivity"
chain=QVQLVESGGGLVQAGGRLRLSCAASGSTIGKYVMGLYRQAPGKERELVAAITNIAGSTYYADSVKGRFTISRDTAKNTVYVQLNSLNPEDTAVYYCAADIEEYYGFDDYDYSYNDYDYWGQGTQVTVSS metric_name="polyreactivity (PSR sort gate)" assay_result="high polyreactivity"

Prompt: Consider the sequence `QVQLVESGGGLVQAGGSLRLSCAASGFNFGYNALGRYRQAPGKEREMVAAISSGGSTYYADSVKGRFTISRDNAKNTVYLQMNSLQPEDTAVYYCAVELGYPIQSYALWWDFEYWGQGTQVTGSS` and give its measured polyreactivity (PSR sort gate).
Response: low polyreactivity

Prompt: Try this sequence too: `QVQLVESGGGLVQAGGSLRLSCAASGSTFQWYAMGWYRQAPGKERELVAGITRTGSTYYADSVKGRFTISRDNAKNTVYLQMNSLKPEDTAVYYCAAKWHTASGKYYYWGQGTQVTVSS`
Response: high polyreactivity

###

TEST: yeast display, Sf9 membrane polyspecificity reagent, FACS + sequencing; frameworks hold sequencing errors
METRIC NAME: polyreactivity (PSR sort gate)

Completed entries (count: 4):
chain=QVQLVESGGGLVQAGGSLRLRCAASGGIFGRYAMGWYRQAPGKERELVAAISKRGGSTYYADSVKGRFTISRDNAKNTVYLLMNSLKPEDTAVYYCNASQSVELGYDYLGQGTQVTVSS assay_result="high polyreactivity"
chain=QVQLVESGGGLVQAGGSLRLSCASSGFTFWYTMGWYRQAPGKEREFVAAITSGGGRTYYADSVKGRFTISRDNAKNTVYLQMNSLKPEETAVYYSAADSYYSWYDYWVQGTQVTVSS assay_result="high polyreactivity"
chain=QVQLVESGGGLVQAGGSLRLSFAASGITFPYYAMGWYRQAPGKEREFVAAISSSGGSTYYADSVKGRFTISRDNAKKTVYLKMHCLKAEDTEVYYCAAGVYGRSSYSKPVLYEYWGQGTQVTVSS assay_result="high polyreactivity"
chain=QVQLVESGGGLVQAGGSLRLSCAASGIIFDEYAMGWYRQAPGKEMELVAGITIGGSTNYADSVKGRLTISRDNAKNTVYLQMNSLKPEDTAVYYCDYLGQGTQVTVSS assay_result="low polyreactivity"

Prompt: Consider the sequence `QVQLVESGGGLVQAGGSLRLSCAASGHNFFYYTMVWYRPAPGKERELVAGITIGGSTNYADSVKGRFTISRDNAKNNVYLVMNSLKPEDTAVYYCNVDKYVYIYSYWEYYYWGQGTQVTVSS` and give its measured polyreactivity (PSR sort gate).
Response: low polyreactivity

###

TEST: yeast display, Sf9 membrane polyspecificity reagent, FACS + sequencing; frameworks hold sequencing errors
METRIC NAME: polyreactivity (PSR sort gate)

chain=QVQIEESGGGLVQAGGSLRLICAASGIIIMDYDMGWSRQAPGKERELVAAISRSGGSTYYADSVKGRFKISRDNAKNSVYLQMNSLKPEDTAVYYCNADNVDYPSAPLNPGKGIYYWGQGTQVTVSS metric_name="polyreactivity (PSR sort gate)" assay_result="low polyreactivity"
chain=QVQLVESGGGLVQAGGSLRLSCAASGRIFNRYGMGWYRQAPGKERELVAAITWRGGNTYYADSVKGRFTISRDNAKNTVYLQMNSLKPEDTAVYYCAADGGYSAYFGAYDYWGQGTQVTVSS metric_name="polyreactivity (PSR sort gate)" assay_result="high polyreactivity"
chain=QVQLVESGGGLVQAGGSLRLSSAASGFTLYRNAMGWNRQAPGKEREFVASITRSGGSTSYADSVKGRFTISRDNAKNTVYLQMNSLKPEDTAVYYCAAAYEYYRWPSEYNYWGQGTQVTVSS metric_name="polyreactivity (PSR sort gate)" assay_result="low polyreactivity"
chain=QVQLVESGGGIVQAGGSLRLSCAASGGIFDYNAMGWYRQAPGKERELVAAISGSDVSTYYADSVKGRFTISRDNAKNTVYLQMKSLKPEDTAVYYCAADAPWAYYEYDYWGQGTQVTVSS metric_name="polyreactivity (PSR sort gate)" assay_result="low polyreactivity"
chain=QVQLVESGGGLVKAGGSLRLSCAASGSIFKSNAMGWYRQAPGKEWELVAAISDSGGSTYYADSVKGRFTISRDNAKNTVYLQMNSLKPEDTAVYYCNADWSWYNYYDFDYWGQGTQVTVSS metric_name="polyreactivity (PSR sort gate)" assay_result="low polyreactivity"
chain=QVQLVESGGGLVQAGGSLRLSCAASGRTFFYYAMGWYRQAPGKERELVAGITSTGSSTYYADSVKGRFTISRDNAKNTLYLQMNSLKPEDTAVYYCAADRYTTYSGQWSYPYDYWGQGTQVTVSS metric_name="polyreactivity (PSR sort gate)" assay_result="low polyreactivity"

Prompt: Consider the sequence `QVQLVESGGGLVQAGGSLRLSCAASGSTFGTNAMGWYRQAPGKEREFVAAISRRGGRTYYADSVKGRFTISRDNAKNTVYLQMNSLKPEDTAVYYCNAVSTGQGLYDYWGQGTQVTVSS` and give its measured polyreactivity (PSR sort gate).
Response: high polyreactivity

Prompt: Try this sequence too: `QVHLVESGGGLVQAGGSLRLSCAASGSIFYSYAMGWYRQAPGKERELVASINWSGASTYYADSVKGRFTISRDNAKNTVYLQMNSLKPEDTAVYYCAADWWGYDGRYDYWGQGTQVTVSS`
Response: high polyreactivity

Prompt: Try this sequence too: `QVQLVESGGGLVQAGGSLRLSCAASGRIFSANAMGWYRQAPGKERELVAISWTGGSTYYADSVKGRFTISRDNAKNTVYLQMNSLKPEDTAVYYCAKERYGKYFGSVDYWGQGTQVTVSS`
Response: low polyreactivity

Prompt: Try this sequence too: `QVQLVESGGGLVQAGGSLRLSCAASGRTFGRNAMGWYRQAPGKEREFVAAISYRGGSTYYADSVKGRFTISRDNAKNTVYLQMNSLKPEDTAVYYCAVRFSAPGYYYWGQGTQVTVSS`
Response: high polyreactivity
